Each recorded value in this set is attributed to patent US8623879B2.

// values below are reported IC50
Biological target: human PDE9A2 (Homo sapiens)
Construct: made in house; host or cells: Sf9 insect cells (infected); crude lysate used as enzyme source
Assay: PDE9A2 enzymatic activity assay (scintillation proximity assay, SPA)
Format: biochemical
Conditions: reported only as range 1-100 or 101-1200 nanomolar; specific value lies within range; read-out: IC50 within range [nanomolar (nM)]
property: IC50

molecule="O=c1[nH]c(Cc2cccc(Cl)c2)nc2c1cnn2C1CCOCC1 [Example 39]" target_desc="human PDE9A2 (Homo sapiens)" property=IC50 assay_value="1 to 100 nM"
molecule="O=c1[nH]c(Cc2cccc(F)c2)nc2c1cnn2C1CCOCC1 [Example 139]" target_desc="human PDE9A2 (Homo sapiens)" property=IC50 assay_value="1 to 100 nM"
molecule="CC(C)(C)OC(=O)N1CCCC(n2ncc3c(=O)[nH]c(Cc4ccccn4)nc32)C1 (racemic) [Example 20]" target_desc="human PDE9A2 (Homo sapiens)" property=IC50 assay_value="1 to 100 nM"
molecule="CN1CCCC(n2ncc3c(=O)[nH]c(CC4CCCC4)nc32)C1 (racemic) [Example 208]" target_desc="human PDE9A2 (Homo sapiens)" property=IC50 assay_value="101 to 1200 nM"

###

Molecular target: human PDE9A2 (Homo sapiens, UniProt O76083)
Construct: made in house; host or cells: Sf9 insect cells (infected); crude lysate used as enzyme source
Sequence (O76083 1-533 isoform O76083-2): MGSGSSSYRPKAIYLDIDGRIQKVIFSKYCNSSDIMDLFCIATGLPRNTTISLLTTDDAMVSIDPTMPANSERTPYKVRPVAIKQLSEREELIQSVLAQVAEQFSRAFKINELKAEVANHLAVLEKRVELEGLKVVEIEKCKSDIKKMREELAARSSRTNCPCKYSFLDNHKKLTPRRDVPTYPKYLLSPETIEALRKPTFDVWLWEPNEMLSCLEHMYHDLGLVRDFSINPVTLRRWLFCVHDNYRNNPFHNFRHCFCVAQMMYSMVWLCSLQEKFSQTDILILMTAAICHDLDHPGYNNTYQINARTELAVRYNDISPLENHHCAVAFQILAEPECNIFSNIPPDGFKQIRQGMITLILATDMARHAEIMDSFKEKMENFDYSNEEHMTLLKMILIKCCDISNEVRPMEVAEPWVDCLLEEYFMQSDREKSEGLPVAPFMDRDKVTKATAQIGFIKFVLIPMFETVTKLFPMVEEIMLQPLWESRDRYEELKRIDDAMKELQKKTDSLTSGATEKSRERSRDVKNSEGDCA
Experiment: PDE9A2 enzymatic activity assay (scintillation proximity assay, SPA)
Assay type: biochemical
Settings: reported only as range 1-100 or 101-1200 nanomolar; specific value lies within range; read-out: IC50 within range [nanomolar (nM)]
Reported IC50 by item:
property: IC50

compound="CC(C)(C)OC(=O)N1CCCC(n2ncc3c(=O)[nH]c(CC4CCCC4)nc32)C1 (racemic) [Example 17]" assay_value="1 to 100 nM"
compound="COc1ccccc1Cc1nc2c(cnn2C2CCN(C(=O)c3ccccc3)C2)c(=O)[nH]1 (racemic) [Example 170]" assay_value="101 to 1200 nM"
compound="COc1cccc(Cl)c1Cc1nc2c(cnn2C2CCOCC2)c(=O)[nH]1 [Example 33]" assay_value="1 to 100 nM"
compound="O=c1[nH]c(Cc2ccccn2)nc2c1cnn2C1CCCCO1 (racemic) [Example 145]" assay_value="101 to 1200 nM"
compound="O=C(c1ccccc1)N1CCCC(n2ncc3c(=O)[nH]c(Cc4ccccc4OC(F)(F)F)nc32)C1 (racemic) [Example 163]" assay_value="101 to 1200 nM"
compound="COc1ccccc1Cc1nc2c(cnn2C2CCOC2)c(=O)[nH]1 (racemic) [Example 83]" assay_value="1 to 100 nM"
compound="CN(C)C(=O)N1CCC(n2ncc3c(=O)[nH]c(Cc4ccccc4)nc32)C1 (racemic) [Example 190]" assay_value="101 to 1200 nM"
compound="CC(C)Cc1nc2c(cnn2C2CCOC(C)C2)c(=O)[nH]1 (racemic) [Example 114]" assay_value="101 to 1200 nM"
compound="CCC(CC)Cc1nc2c(cnn2C2CCOC(C)C2)c(=O)[nH]1 (racemic) [Example 119]" assay_value="1 to 100 nM"
compound="CC[C@H](C)Cc1nc2c(cnn2C2CCOCC2)c(=O)[nH]1 [Example 128]" assay_value="1 to 100 nM"
compound="Cc1cccn(-c2ccccc2Cc2nc3c(cnn3C3CCOCC3)c(=O)[nH]2)c1=O [Example 40-7]" assay_value="101 to 1200 nM"
compound="O=c1[nH]c(CC2CCOCC2)nc2c1cnn2C1CCOCC1 [Example 41]" assay_value="101 to 1200 nM"
compound="O=c1[nH]c(CCCC(F)(F)F)nc2c1cnn2C1CCOCC1 [Example 25]" assay_value="1 to 100 nM"
compound="CC(C)Cc1nc2c(cnn2C2CCOCC2)c(=O)[nH]1 [Example 143]" assay_value="1 to 100 nM"
compound="O=c1[nH]c(Cc2cc(F)cc(F)c2)nc2c1cnn2C1CCOCC1 [Example 7]" assay_value="1 to 100 nM"

###

Molecular target: human PDE9A2 (Homo sapiens)
Construct: made in house; host or cells: Sf9 insect cells (infected); crude lysate used as enzyme source
Assay: PDE9A2 enzymatic activity assay (scintillation proximity assay, SPA)
Assay type: biochemical
Settings: read-out: % inhibition of PDE9A2 (at 10 micromolar concentration), 10 micromolar concentration; values above 100% adjusted to 100%
Reported inhibition at 10 µM values are given for each entry in this list.
property: inhibition at 10 µM (%)

molecule="Cc1cccnc1Cc1nc2c(cnn2C2CCOCC2)c(=O)[nH]1 [Example 56]" assay_value=95
molecule="CCC(C)Cc1nc2c(cnn2C2CCOCC2)c(=O)[nH]1 (racemic) [Example 135]" assay_value=98
molecule="CC(C)Cc1nc2c(cnn2C2CCOC(C)(C)C2)c(=O)[nH]1 (racemic) [Example 106]" assay_value=87
molecule="O=c1[nH]c(CC2CC2)nc2c1cnn2C1CCS(=O)(=O)CC1 [Example 237]" assay_value=89
molecule="O=c1[nH]c(Cc2ccccc2F)nc2c1cnn2C1CCCNC1 (racemic) [Example 204]" assay_value=87
molecule="O=C1CC(n2ncc3c(=O)[nH]c(CC4CCCC4)nc32)CCO1 (stereo not shown) [Example 233]" assay_value=100
molecule="CC(=O)N1CCC(n2ncc3c(=O)[nH]c(Cc4ccccc4OC(F)(F)F)nc32)CC1 [Example 153]" assay_value=90
molecule="CC(C)Oc1ccccc1Cc1nc2c(cnn2C2CCOCC2)c(=O)[nH]1 [Example 54]" assay_value=97
molecule="O=c1[nH]c(Cc2cccnc2)nc2c1cnn2C1CCOC1 (racemic) [Example 78]" assay_value=99
molecule="CN1CCC(n2ncc3c(=O)[nH]c(CC4CCCC4)nc32)C1 (racemic) [Example 207]" assay_value=100

###

Target: human PDE9A2 (Homo sapiens)
Construct: made in house; host or cells: Sf9 insect cells (infected); crude lysate used as enzyme source
Test: PDE9A2 enzymatic activity assay (scintillation proximity assay, SPA)
Format: biochemical
Conditions: reported only as range 1-100 or 101-1200 nanomolar; specific value lies within range; read-out: IC50 within range [nanomolar (nM)]
IC50 overview
property: IC50

molecule="CN1CCC(n2ncc3c(=O)[nH]c(Cc4ccccc4OC(F)(F)F)nc32)C1 (racemic)" assay_value="1 to 100 nM"
molecule=Cc1cc(C)cc(Cc2nc3c(cnn3C3CCOCC3)c(=O)[nH]2)c1 assay_value="1 to 100 nM"
molecule="CC1CC(n2ncc3c(=O)[nH]c(Cc4ccccn4)nc32)CCO1 (racemic) [Example 111]" assay_value="101 to 1200 nM"
molecule="O=c1[nH]c(CC2CC2)nc2c1cnn2C1CCOC1 (racemic)" assay_value="1 to 100 nM"
molecule=O=c1[nH]c(Cc2c(F)ccc(F)c2Cl)nc2c1cnn2C1CCOCC1 assay_value="1 to 100 nM"
molecule="CC(C)Cc1nc2c(cnn2C2CCOCC2C)c(=O)[nH]1 (racemic) [Example 132-1]" assay_value="1 to 100 nM"
molecule="CC1CC(n2ncc3c(=O)[nH]c(Cc4ccccc4C(F)(F)F)nc32)CCO1 (racemic) [Example 116]" assay_value="101 to 1200 nM"

###

Target: human PDE9A2 (Homo sapiens)
Construct: made in house; host or cells: Sf9 insect cells (infected); crude lysate used as enzyme source
Experiment: PDE9A2 enzymatic activity assay (scintillation proximity assay, SPA)
Assay type: biochemical
Conditions: reported only as range 1-100 or 101-1200 nanomolar; specific value lies within range; read-out: IC50 within range [nanomolar (nM)]
Parameter: IC50. Scope: all listed entries.
property: IC50

compound="N#Cc1cccc(Cc2nc3c(cnn3C3CCCOC3)c(=O)[nH]2)c1 (racemic) [Example 98]" target_desc="human PDE9A2 (Homo sapiens)" assay_value="1 to 100 nM"
compound="O=c1[nH]c(CC2CCC2)nc2c1cnn2C1CCOC1 (single isomer, unassigned) [Example 132-9]" target_desc="human PDE9A2 (Homo sapiens)" assay_value="101 to 1200 nM"
compound="O=c1[nH]c(Cc2ccccc2OC(F)(F)F)nc2c1cnn2C1CCCOC1 (racemic) [Example 91]" target_desc="human PDE9A2 (Homo sapiens)" assay_value="1 to 100 nM"
compound="CN1CCC(n2ncc3c(=O)[nH]c(Cc4ccccc4)nc32)C1 (racemic) [Example 210]" target_desc="human PDE9A2 (Homo sapiens)" assay_value="1 to 100 nM"
compound="O=c1[nH]c(Cc2ccccc2OC(F)(F)F)nc2c1cnn2C1CCCNC1 (racemic) [Example 198]" target_desc="human PDE9A2 (Homo sapiens)" assay_value="101 to 1200 nM"
compound="C=Cc1cc(OC)ccc1Cc1nc2c(cnn2C2CCOCC2)c(=O)[nH]1 [Example 230-4]" target_desc="human PDE9A2 (Homo sapiens)" assay_value="101 to 1200 nM"
compound="CC1COCCC1n1ncc2c(=O)[nH]c(CC3CCCC3)nc21 (racemic) [Example 132-2]" target_desc="human PDE9A2 (Homo sapiens)" assay_value="1 to 100 nM"
compound="O=c1[nH]c(Cc2cccc(C(F)(F)F)n2)nc2c1cnn2C1CCOCC1 [Example 64]" target_desc="human PDE9A2 (Homo sapiens)" assay_value="1 to 100 nM"
compound="CC(=O)N1CCCC(n2ncc3c(=O)[nH]c(CC4CCC4)nc32)C1 (racemic) [Example 180]" target_desc="human PDE9A2 (Homo sapiens)" assay_value="101 to 1200 nM"
compound="CC(C)Cc1nc2c(cnn2C2CCCN(C(=O)c3ccccc3)C2)c(=O)[nH]1 (racemic) [Example 177]" target_desc="human PDE9A2 (Homo sapiens)" assay_value="101 to 1200 nM"
compound="O=C1CC(n2ncc3c(=O)[nH]c(CC4CCCC4)nc32)CCO1 (stereo not drawn) [Example 233]" target_desc="human PDE9A2 (Homo sapiens)" assay_value="1 to 100 nM"
compound="O=c1[nH]c(CC2CCCC2)nc2c1cnn2C1CCOC1 (racemic) [Example 69]" target_desc="human PDE9A2 (Homo sapiens)" assay_value="1 to 100 nM"
compound="COc1cccnc1Cc1nc2c(cnn2C2CCOCC2)c(=O)[nH]1 [Example 67]" target_desc="human PDE9A2 (Homo sapiens)" assay_value="101 to 1200 nM"
compound="COC(=O)N1CCCC(n2ncc3c(=O)[nH]c(Cc4ccccc4)nc32)C1 (racemic) [Example 155]" target_desc="human PDE9A2 (Homo sapiens)" assay_value="1 to 100 nM"
compound="N#Cc1ccccc1Cc1nc2c(cnn2C2CCOCC2)c(=O)[nH]1 [Example 53]" target_desc="human PDE9A2 (Homo sapiens)" assay_value="1 to 100 nM"
compound="COc1ccc(C#N)c(Cc2nc3c(cnn3C3CCOCC3)c(=O)[nH]2)c1 [Example 35]" target_desc="human PDE9A2 (Homo sapiens)" assay_value="101 to 1200 nM"
compound="O=c1[nH]c(CCC2CCC2)nc2c1cnn2C1CCOCC1 [Example 40-1]" target_desc="human PDE9A2 (Homo sapiens)" assay_value="1 to 100 nM"
compound="O=c1[nH]c(Cc2cccc(C(F)(F)F)c2)nc2c1cnn2C1CCOC1 (racemic) [Example 85]" target_desc="human PDE9A2 (Homo sapiens)" assay_value="1 to 100 nM"
compound="COc1ccccc1Cc1nc2c(cnn2C2CCCOC2)c(=O)[nH]1 (racemic) [Example 127]" target_desc="human PDE9A2 (Homo sapiens)" assay_value="1 to 100 nM"
compound="O=c1[nH]c(Cc2ccccc2OC(F)(F)F)nc2c1cnn2C1CCOC1 (racemic) [Example 70]" target_desc="human PDE9A2 (Homo sapiens)" assay_value="1 to 100 nM"
compound="COc1cccnc1Cc1nc2c(cnn2C2CCCOC2)c(=O)[nH]1 (racemic) [Example 122]" target_desc="human PDE9A2 (Homo sapiens)" assay_value="101 to 1200 nM"
